Tested on: cholesterol (TC) level of plasma
Assay method text: Plasma cholesterol (TC) in Triton-injected mice (Experiment 2)
Assay type: in vivo, mice of ddY strain
Condition summary: Mus musculus, iv; Table 2; 150 mg/kg immediately and 8 hours after Triton WR-1399 500 mg/kg i.v.; blood drawn 24 h after Triton; read-out: Percent Reduction TC (x ± S.E.)
Observed property: inhibition in vivo (%)
One number for each entry, in %.

# batch size: 5; output inhibition in vivo per entry
1. CCOC(=O)c1ccc2c(c1)N=C(CC)c1ccc(OC)cc1O2
2. CCCCOC(=O)c1ccc2c(c1)N=Cc1cccc(OC)c1O2
3. CCOC(=O)C(C)(C)Oc1ccc(Cl)cc1 [chlofibrate, reference compound]
4. CCOC(=O)c1ccc2c(c1)N=C(c1ccccc1)c1ccc(OC)cc1O2
5. CCOC(=O)c1ccc2c(c1)N=C(C=Cc1ccccc1)c1cc(OC)ccc1O2

[19.5, 17.4, 13.8, 18.4, 17.4]
